Origin of measurements: patent US8952043B2

As an illustration, consider measured IC50 for compounds on UniProt P42336.
Sequence (P42336 whole entry): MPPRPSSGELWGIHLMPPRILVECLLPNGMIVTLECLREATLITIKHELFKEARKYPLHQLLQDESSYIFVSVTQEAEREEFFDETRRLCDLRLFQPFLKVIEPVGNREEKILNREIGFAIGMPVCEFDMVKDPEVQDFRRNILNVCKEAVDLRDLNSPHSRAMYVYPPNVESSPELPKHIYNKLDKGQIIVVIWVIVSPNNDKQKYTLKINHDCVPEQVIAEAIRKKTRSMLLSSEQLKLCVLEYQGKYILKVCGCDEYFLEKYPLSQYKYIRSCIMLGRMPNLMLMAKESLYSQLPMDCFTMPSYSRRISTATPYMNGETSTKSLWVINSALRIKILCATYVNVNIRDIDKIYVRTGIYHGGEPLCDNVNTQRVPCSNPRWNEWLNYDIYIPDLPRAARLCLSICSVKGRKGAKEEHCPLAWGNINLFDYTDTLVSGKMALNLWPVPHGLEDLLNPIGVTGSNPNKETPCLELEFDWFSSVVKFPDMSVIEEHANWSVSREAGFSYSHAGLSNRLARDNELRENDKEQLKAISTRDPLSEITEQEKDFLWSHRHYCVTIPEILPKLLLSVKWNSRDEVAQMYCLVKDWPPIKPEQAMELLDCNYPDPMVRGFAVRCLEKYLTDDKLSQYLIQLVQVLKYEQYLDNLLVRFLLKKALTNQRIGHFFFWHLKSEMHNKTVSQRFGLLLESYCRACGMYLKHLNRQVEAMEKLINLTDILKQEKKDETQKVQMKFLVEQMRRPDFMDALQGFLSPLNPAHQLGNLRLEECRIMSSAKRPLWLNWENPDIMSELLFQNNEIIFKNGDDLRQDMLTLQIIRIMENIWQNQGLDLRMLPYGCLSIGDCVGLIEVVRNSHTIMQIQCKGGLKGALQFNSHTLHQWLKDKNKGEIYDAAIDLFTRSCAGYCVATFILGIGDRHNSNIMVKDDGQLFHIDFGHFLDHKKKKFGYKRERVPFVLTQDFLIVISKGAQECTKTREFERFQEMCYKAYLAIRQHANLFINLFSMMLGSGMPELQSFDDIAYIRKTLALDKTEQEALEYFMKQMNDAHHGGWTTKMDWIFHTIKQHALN
Sequence (P27986 whole entry partner): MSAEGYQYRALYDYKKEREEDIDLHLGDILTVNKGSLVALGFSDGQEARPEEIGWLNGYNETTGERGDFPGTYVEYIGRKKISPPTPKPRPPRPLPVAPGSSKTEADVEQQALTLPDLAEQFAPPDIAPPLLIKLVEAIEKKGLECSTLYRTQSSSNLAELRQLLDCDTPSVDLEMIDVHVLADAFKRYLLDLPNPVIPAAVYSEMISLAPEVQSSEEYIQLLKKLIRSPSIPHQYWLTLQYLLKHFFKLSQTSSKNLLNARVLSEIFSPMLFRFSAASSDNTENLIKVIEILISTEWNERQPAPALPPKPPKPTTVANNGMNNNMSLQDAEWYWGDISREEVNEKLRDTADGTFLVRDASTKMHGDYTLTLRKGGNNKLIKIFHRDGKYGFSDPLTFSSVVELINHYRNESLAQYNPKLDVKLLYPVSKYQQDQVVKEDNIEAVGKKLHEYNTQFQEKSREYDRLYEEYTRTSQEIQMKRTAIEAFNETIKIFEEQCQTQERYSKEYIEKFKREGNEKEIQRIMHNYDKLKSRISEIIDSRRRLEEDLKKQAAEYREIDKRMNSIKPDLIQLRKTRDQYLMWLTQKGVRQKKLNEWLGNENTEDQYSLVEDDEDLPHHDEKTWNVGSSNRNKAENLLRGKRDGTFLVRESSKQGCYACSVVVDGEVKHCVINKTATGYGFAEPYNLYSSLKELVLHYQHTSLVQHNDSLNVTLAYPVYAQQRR
Give the value, in units of nM, as a plain number.

Look over these answered cases.
INSERT INTO results (compound, readout_number) VALUES
  ('CC(C)n1ncnc1-c1cc2c(s1)-c1ccc(-c3cccc(C(=O)O)c3)cc1OCC2 [compound 147]', 21),
  ('CC(C)N(CCO)C(=O)c1nc2c(s1)CCOc1cc(-c3cn[nH]c3)ccc1-2 [compound 103]', 1.8);

Please give the documented IC50 of CC(C)N(C)C(=O)c1nc2c(s1)CCOc1cc(-c3cn[nH]c3)ccc1-2 [compound 102]
5.1

Read off the recorded IC50 for CNC(=O)c1ccc2c(c1)OCCc1cc(-c3nc(N)nn3-c3ccc(F)cc3F)sc1-2 [compound 127]
0.05

###

Test system: MDA-MB-361.1
ASSAY_OVERVIEW: CellTiter-Glo cell proliferation assay, MDA-MB-361.1
Type: cell-based
CONDITION_DESCRIPTION: Breast, mutation status PI3K
Method: The in vitro potency of Formula I exemplary compounds was measured by the cell proliferation assay, CellTiter-Glo® Luminescent Cell Viability Assay, commercially available from Promega Corp., Madison, Wis. (Example 602). […] Efficacy of Formula I compounds were measured by a cell proliferation assay employing the following protocol (Promega Corp. Technical Bulletin TB288; Mendoza et al (2002) Cancer Res. 62:5485-5488): […]
QUANTITY_KIND: pEC50
pEC50 here is simply -log10 of the concentration when that concentration is written in mol/L.

INSERT INTO measurements (smiles_notation, readout_number) VALUES
  ('CC(C)n1ncnc1-c1nc2c(s1)CCOc1cc(C3CCNCC3)ccc1-2', 5.96),
  ('CNC(=O)c1ccc2c(c1)OCCc1cc(-c3nc(N)nn3-c3ccc(F)cc3F)sc1-2', 7.22),
  ('Cc1nc(-c2nc3c(s2)CCOc2cc(-c4cn(CCO)cn4)ccc2-3)n(C(C)C)n1', 5.58);

Return value of pEC50 for input `CC(C)n1nc(N)nc1-c1nc2c(s1)CCOc1cc(C3CN(CCS(C)(=O)=O)C3)ccc1-2` , no commentary.
6.07

###

Readings of pEC50 for the listed compounds
Tested on: T47D
ASSAY_OVERVIEW: CellTiter-Glo cell proliferation assay, T47D
Type: cell-based
CONDITION_DESCRIPTION: Homo sapiens, Breast, mutation status PI3K
Schema: pEC50 number; meaning minus log10 of the concentration expressed in molar units.

Known results for compounds:
INSERT INTO measurements (smiles_notation, quantity_kind, readout_number) VALUES
  ('CC(C)n1ncnc1-c1nc2c(s1)CCOc1cc(C3CCNCC3)ccc1-2', 'pEC50', 6.84),
  ('CC(C)n1nc(N)nc1-c1nc2c(s1)CCOc1cc(C3CN(CCS(C)(=O)=O)C3)ccc1-2', 'pEC50', 6.73);

// moving on: another record for pEC50
Give recorded pEC50. `Cc1nc(-c2nc3c(s2)CCOc2cc(-c4cn(CCO)cn4)ccc2-3)n(C(C)C)n1`
6.24

###

System: HCC1954
ASSAY_OVERVIEW: CellTiter-Glo cell proliferation assay, HCC1954
Type: cell-based
CONDITION_DESCRIPTION: Homo sapiens, Breast, mutation status PI3K
QUANTITY_KIND: pEC50
As a rule, pEC50 stands for the negative log10 of the concentration, concentration in M.

// worked examples, pEC50 included
INSERT INTO measurements (smiles_notation, target_desc, readout_number) VALUES
  ('CC(C)n1nc(N)nc1-c1nc2c(s1)CCOc1cc(C3CN(CCS(C)(=O)=O)C3)ccc1-2', 'HCC1954', 6.47),
  ('Cc1nc(-c2nc3c(s2)CCOc2cc(-c4cn(CCO)cn4)ccc2-3)n(C(C)C)n1', 'HCC1954', 5.79);

Let us move to another entry and its pEC50.
Specify reported pEC50 for the compound shown: `CC(C)n1ncnc1-c1nc2c(s1)CCOc1cc(C3CCNCC3)ccc1-2`
6.46

###

Tested on: H2122
ASSAY_OVERVIEW: CellTiter-Glo cell proliferation assay, H2122
Assay type: cell-based
CONDITION_DESCRIPTION: Homo sapiens, NCI-H2122, Lung(NSCLC), mutation status K-RAS
Some compounds, each annotated with its measured pEC50.
Worth noting: pEC50 values are minus log10 of concentrations stated in mol/L.

INSERT INTO results (compound, quantity_kind, readout_number) VALUES
  ('CC(C)n1ncnc1-c1nc2c(s1)CCOc1cc(C3CCNCC3)ccc1-2 [compound 375]', 'pEC50', 5.93);

For the compound Cc1nc(-c2nc3c(s2)CCOc2cc(-c4cn(CCO)cn4)ccc2-3)n(C(C)C)n1 [compound 440] , give its reported pEC50.
5.00

Return the recorded pEC50 value; entry: CC(C)n1nc(N)nc1-c1nc2c(s1)CCOc1cc(C3CN(CCS(C)(=O)=O)C3)ccc1-2 [compound 463]
6.27
